- procedure_text: yeast display, Sf9 membrane polyspecificity reagent, FACS + sequencing; frameworks hold sequencing errors
endpoint_label: polyreactivity (PSR sort gate)

Here's what some known entries look like.
{"columns": ["record_sequence", "polyreactivity (PSR sort gate)"],
 "data": [
  ["QVQLVESGGGLVQAGGSLRLSCAASGITLYYYTMGWYRQAPGKERELVAAISGSGGSTYYADSVKGRFTISRDNAKNTVYLQMNSLKPEDTAVYYCNTARSLKNHFYKYDYWGHGTQVTVSS", "high polyreactivity"],
  ["QVQLVESGGGLVQAGGSLRLSCAASGRTFGFNVMGWYRQAPGKERELVAAISWSGGSTYYADSVKGRFTISRDNAKNTVYLQLNSLKPADTAVYYCNKRYVHRYGYWGQGTQVTVSS", "low polyreactivity"],
  ["QVQLVESGGGLVQAGGSLRLSCAASGGIFRKYAMGWDRQAPGKERDLVAAITSGGGTYYADSVKGRFTISRDNAKNTVLLQMNSQKPEDTAVYYCAARTLYVARRRPYYYWGQGTLVTVSS", "high polyreactivity"],
  ["QVQLVESGGGLVQAGGSLRLSCAASGIIFRRYAMGWYRQAPGKERQLVARISFRGGSTYYADSVKGRFTISRDNAKNTVYLQMNSLKPEDTAVYYCNRDPRYSKEVDGDYWGQGTQVTVSS", "high polyreactivity"],
  ["QVQLVESGGGLVQAGGSLRLSCAASGSTFDGNAMGWYRQAPGKERELVAAITYTTSSTYYADSVKGRFTISRDNAKNTVYLQMNSLKPEDTAVYYCAADASYLPYPLPGTEYEYWGQGTQVTVSS", "low polyreactivity"]
]}

Given the entry QVQLVESGGGLVQAGGSLRLSCAASGSTSYLYPMGWDRQAPGKERELVAAISWNGGSTYYADSVKGRFTISLDNAKNTVYLQMNSLKPEDTAVYYCAASVHATSFSGGRHWFKLYYWGQGTQVTVSS , report its measured polyreactivity (PSR sort gate). high polyreactivity

// lookup polyreactivity (PSR sort gate) for QVQLVESGGGLVQAGGSLRLSCAASGFIFNIYGMGWYRQAPGKERELVAAISRGGSTYYADSVKGRFTISRDNAKNTGYLQMNSLTPEDTAVYYCAAVGYTLEYEYWGQGTQVTVSS low polyreactivity

# input sequence: QVQLVESGGGLVQAGGSLRLSCAASGRIFYQYAMGWYRQAPGKERELVAAIRYRDDGTYYADSVKGRFTISRDNAKNTVYLQMNSLQPEDTAVYYCAAKQWGRYGYWGQGTQVTVSS ; wanted: its polyreactivity (PSR sort gate) high polyreactivity

# query: polyreactivity (PSR sort gate) of entry QVQLVESGVGLVQAGGSLRLSCAASGSTFDTYAMGWYRQAPGKERELVAAITSSGSTYYADSVKGRFTISRDNAKNTVYLQMNSLKPEDTAVYYCAADLSYLYAHNPGDYWGQGTQVTVSS low polyreactivity

# polyreactivity (PSR sort gate) lookup, item QVQLVESGGGLVQAGGSLRISCAASARIFQVYGMGWYRQAPGKERELVASITYRGGSTYYADSVKGRFTISRDNAKNNVDLQMNSLKPEDTAVYYCAADGAFYASTEMDYWGQGTQVTVSS low polyreactivity

Recorded polyreactivity (PSR sort gate) for QVQLVESGGGLVQAGGSLRLSCAASGLIFSSNVMGWYRQAPGKERQLVAAIRQRGGSTRYADSVKGRFTISRDNAKNTVYLQMNSLKPEDTEVYYCAADTYYSHSWDSYDYWGQGTQVTVSS , please? low polyreactivity

What polyreactivity (PSR sort gate) value was documented for this sequence, QVQLVESGGGLVPAGGSLRLSCAASGSTGFNAMGWYRQAPGKERELVAAINYSDGSTYYADSVKGRFTISRDNAKNTVYLQMNSLKPEDTAVYYCNAGSSKDDSYYSYGYWGQGTQVTVSS ? low polyreactivity

Given the sequence QVQLVESGGGLVQAGGSLRLSCAASGRTYSIYAMGLYRQEPGNEREMVAAISNGGRTKYADSVKGRFTISRDNAKNTVYLQMNSLKPEDTAVYYCAASSYTNKRYPSPYDYWGQGTQVTVSS , what is its reported polyreactivity (PSR sort gate)? high polyreactivity

Could you tell me which polyreactivity (PSR sort gate) is on file for QVQLVESGGGLVQAGGSLRLSCAASGIIFPSYDMGWYRQAPGKERELVAAINSGDSTYYADSVKGRFTISRDNAKNTVYLQMNSLKPEDTAVYYCAANPGDLGGWYVPYDYWGQGTQVTVSS ? low polyreactivity

Would you mind telling me what polyreactivity (PSR sort gate) value was observed for QVQLVESGGGLVQAGGSLRLSCAASGSIFSSNVMGWYRQAPWKERELVAAITVRGSRTYYADSVKGRFTISRDNAKNTVYLQLNSLKPEDTAVYYCNAVARVLGSDRRLQYYYWGQGTQVTVSS ? high polyreactivity

Would you kindly share the measured polyreactivity (PSR sort gate) for QVQLVESGGGLVQAGGSLRLSCAASGLTIQRNDMGWYRQAPGKEREFVATITSNAGSTYYADSVKGRFTISRDNAKNPVYFQMNSLKPEDTAVYYWARERWWGGSDYWGQGTQVTVSS ? high polyreactivity

Quick one: polyreactivity (PSR sort gate) for QVQLVESGGGLVQAGGSLRLSCASSGLTFRYNAMGWYRQAPGKERELVAAIRTSGGSTYYADSVKGRFTISRDNAKNTVYLQMNSLKPEDTAVYYCAARSKSYYGGYARGYWGQGTQVTVSS ? high polyreactivity

Any idea what its polyreactivity (PSR sort gate) is? The sequence is QVQLVESGGGLVQAGGSLRLSCAASGGIFPFNGMGWYRQAPGKERELVAAISSGGRTYYADSVKGRFTISRDNAKNTVYLQMNSLKPEDTAVYYCAARTSRYYYYPYAFYWGQGTQVTVSS high polyreactivity

Need polyreactivity (PSR sort gate) of QVQLVESGGGLVQAGGSLRLSCAASGRIFNQYGMGWYSQARGKERELVAAIRSGDSTNYADSVKGRFTISRDNAKNTVYLQMNSLKPEDTAVDYCARDRPGDYAGYDYWGQGTQVTVSS , thanks. low polyreactivity

Quick one: polyreactivity (PSR sort gate) of QVQLVESGGGLVQAGGSLRLSCAASGRTFYYYAMGWYRQAPGKERELVAAISWRGGSTYYADSVKGRFTISRDNAKNTVYLQMNSLKPEDTAVYYCAVYTTYSRYRGYDYWGQGTQVTVSS ? high polyreactivity

// returns reported polyreactivity (PSR sort gate) for input QVQLVESGGGLVQAGGSLRISCAASGRTFYANAMGWYRQAPGKERELVAAISSNGGSTYYADSVKGRFTISRDNAKNTVYLQMNSLKPEDTAVYYCAVVSRYIAWRKYDYCGQGTQVTVSS high polyreactivity

----------
- procedure_text: yeast display, Sf9 membrane polyspecificity reagent, FACS + sequencing; frameworks hold sequencing errors
endpoint_label: polyreactivity (PSR sort gate)

{"columns": ["record_sequence", "polyreactivity (PSR sort gate)"],
 "data": [
  ["QVQRVESGGGLVQAGGSLRLSCAASGFIFGRYAMGWYRQAPGKERELVAASTWGGDSTYYADSVKGRFTISRDNAKNTVYLQMNSLKPEDTAVYYCAAYPQRRFYWQYRYDYWGQGTQVTVSS", "high polyreactivity"],
  ["QVQLVESGGRLVQAGGSLRLSCAASGSTIYPNAMGWSRQAPGKERELVAAISRGTRTKYADSVKGRFTISRDNAKNTVYVQMNSLKPEDTAVYYCAADTGTGLDWGQGTQGTVSS", "high polyreactivity"],
  ["QVQLVESGGGLVQAGGSLRLSCAASGLIFDYNAMGWYRQAPGKEWELVAAISSGGSTYYADSVKGRFTISRDNANNTVYLQMNSLKPEDTAVYYCAARFSSYVRRYYYWGQGTQVTVSS", "high polyreactivity"],
  ["QVKLVDSGGGLVQAGGSLRLSCAASGSIFAGYAMGWYRQEPGKVRELVAAINASGGSTYYADSVKGRFTISRDNAKNTVYLQMNSLKPEDTAVYYCNRVYKRYYIGGYDYWGQGTQLTVSS", "high polyreactivity"],
  ["QVQLVESGGGLVQAGGSLRLSCAASGSIFNSYAMGWYRQAPGKERELVAAISSGGGRTYYAVSVKGRFKISRDNAKNTVYLQMNSLKPEDTAVYYCAKYYRAFIRDYNYWGQGTQVTVSS", "high polyreactivity"],
  ["QVQLVESGGGLVQAGGSLRLSCAASGFTIGDNAMGWSRQAPGKERELVAAITWSGGSTYYADSVKGRFTISRDNAKNTVYLQMNSLKPEDTAVYYCAADKLRELDYWGQGTEVTVSS", "low polyreactivity"],
  ["QVQLVESRGGLVQAGGSLRLSCAASGSTFTYYAMGWYRQAPGKERELVAAITFRGDSTYYADSVKVRFTISRDNAKNTVYFQMNSLKPEDTAVYYWGQGTQVTVSS", "low polyreactivity"],
  ["QVQLVESGGGLVQAGGSLRLICAASGRTFYYYAMGWDRQAPGKERELVASISYSAGRTYADSVKGRFTISRDNAKNTVYLLMNSLKPEDTAVYYCAAALYVNPYNYGTARWYYYWGQGTQVTVSS", "high polyreactivity"]
]}

// moving on: another record for polyreactivity (PSR sort gate)
Request the reported polyreactivity (PSR sort gate) associated with QVQLGESGGGLVQAGGSLRLSCAASGGTFSQYAMGWYRHAPGKERELVARISRRGGSTSYADSVKGRFTISRDNAKNTVYLQMNSLKPEDTAVYYCAKDAPSVYPGRFGNTGGYAYDYWGQGTQVTVSS high polyreactivity
